biological target: His rBCLA; assay: ELISA binding of purified VHH to immobilized His rBCLA; set-up: species or system Toxoplasma gondii; details: 200 ng/well antigen, serial dilution of VHH
assay readout: apparent affinity to immobilized His rBCLA

>  <molecule>
ERB-1H4: single domain antibody (VHH) selected on His rBCLA, SEQ ID NO: 62 (protein, Synthetic VHH ERB-1H4) VHH: EVQLVESGGGLVQAGGSLRLSCVASGRTFSRYTVGWFRQAPGKEREFVAGISWSGSRTSYADSVKGRFTISRDNDKTTGYLQMNSLKPEDTAVYYCAAITKLYENNIPRSVSDYALWGQGTQVTVSS

>  <endpoint value>
molar

$$$$
>  <molecule>
ERB-1D7: single domain antibody (VHH) selected on His rBCLA, SEQ ID NO: 63 (protein, Synthetic VHH ERB-1D7) VHH: KVQLVESGGGLVQAGGSLRLSCAASGRTFSRRGMGWFRQAPGKEREFVATIKWSGTSTDYADSVKGRFTISRDNAKNTVYLQMNNLQPEDTAVYYCAADRQLYRDGYVPLNEYEDWGQGTQVTVSS

>  <endpoint value>
molar

$$$$
